ASSAY_REMARKS: Kinetic aqueous solubility
Type: physicochemical
Where a SMILES comes first, the peptide text is derived from it. [ ]: non-standard residue; d: D form. dPhe(4-Cl) = N[C@H](Cc1ccc(Cl)cc1)C(=O)O; aIle = CC[C@@H](C)[C@H](N)C(=O)O; dPhLac = O=C(O)[C@H](O)Cc1ccccc1; Sar = CNCC(=O)O
RECORDED_METRIC: solubility kinetic (µg/mL)
Write the answer as a number in µg/mL, unit excluded.

Examples with answers:
# MOLECULE, UNIT_TEXT, solubility kinetic
records = [
    ("CC[C@@H](C)[C@@H]1NC(=O)[C@@H](Cc2ccc(Cl)cc2)NC(=O)CN(C)C(=O)[C@H]([C@H](C)CC)NC(=O)[C@@H](Cc2ccc(Cl)cc2)NC(=O)CN(C)C1=O [Compound 17] (cyclo([Sar][dPhe(4-Cl)][aIle][Sar][dPhe(4-Cl)][aIle]))", "µg/mL", 34),
    ("CC[C@H](C)[C@@H]1NC(=O)[C@@H](Cc2ccccc2)OC(=O)CNC(=O)[C@H]([C@@H](C)CC)NC(=O)[C@@H](Cc2ccccc2)OC(=O)CNC1=O [Compound 13] (cyclo(G[dPhLac]IG[dPhLac]I))", "µg/mL", 6),
    ("CC[C@@H](C)[C@@H]1NC(=O)[C@@H](Cc2ccc(OC)cc2)NC(=O)CN(C)C(=O)[C@H]([C@H](C)CC)NC(=O)[C@@H](Cc2ccc(OC)cc2)NC(=O)CN(C)C1=O [Compound 18] (cyclo([Sar][dY](Me)[aIle][Sar][dY](Me)[aIle]))", "µg/mL", 124),
    ("CN1CC(=O)O[C@H](Cc2ccccc2)C(=O)NCC(=O)N(C)CC(=O)O[C@H](Cc2ccccc2)C(=O)NCC1=O [Compound 12] (cyclo(G[Sar][dPhLac]G[Sar][dPhLac]))", "µg/mL", 81),
]

With those in mind, consider the next molecule.
Value lookup for solubility kinetic; key = CC(C)[C@@H]1NC(=O)[C@@H](Cc2ccccc2)OC(=O)CN(C)C(=O)[C@H](C(C)C)NC(=O)[C@@H](Cc2ccccc2)OC(=O)CN(C)C1=O [Compound 11] (cyclo([Sar][dPhLac]V[Sar][dPhLac]V))
80

----------
ASSAY_REMARKS: Intrinsic microsomal clearance, mouse liver microsomes
Type: in vitro ADME
TEST_PARAMETERS: mouse liver microsomes
Where a SMILES comes first, the peptide text is derived from it. [ ]: non-standard residue; d: D form. aIle = CC[C@@H](C)[C@H](N)C(=O)O; dPhLac = O=C(O)[C@H](O)Cc1ccccc1; Sar = CNCC(=O)O
RECORDED_METRIC: intrinsic microsomal clearance (Clint), mouse

Examples with answers:
# COMPOUND, RESULT
measured = [
    ("CN1CC(=O)O[C@H](Cc2ccccc2)C(=O)NCC(=O)N(C)CC(=O)O[C@H](Cc2ccccc2)C(=O)NCC1=O [Compound 12] (cyclo(G[Sar][dPhLac]G[Sar][dPhLac]))", "52.00 mL/(min g) tissue"),
    ("CC[C@@H](C)[C@@H]1NC(=O)[C@@H](CC(C)C)NC(=O)CN(C)C(=O)[C@H]([C@H](C)CC)NC(=O)[C@@H](CC(C)C)NC(=O)CN(C)C1=O [Compound 19] (cyclo([dL][aIle][Sar][dL][aIle][Sar]))", "5.79 mL/(min g) tissue"),
]

Value lookup for intrinsic microsomal clearance (Clint), mouse; key = CC[C@@H](C)[C@@H]1NC(=O)[C@@H](Cc2ccccc2)OC(=O)CN(C)C(=O)[C@H]([C@H](C)CC)NC(=O)[C@@H](Cc2ccccc2)OC(=O)CN(C)C1=O [Compound 9] (cyclo([Sar][dPhLac][aIle][Sar][dPhLac][aIle]))
38.3 mL/(min g) tissue
